- target.entity: Human Cav3.1 calcium channel (Homo sapiens, UniProt O43497)
- Construct: expressed in transfected cells; host or cells: HEK-293 natClytin/TASK1+Cav3.1 cell line
- Sequence (O43497 whole entry): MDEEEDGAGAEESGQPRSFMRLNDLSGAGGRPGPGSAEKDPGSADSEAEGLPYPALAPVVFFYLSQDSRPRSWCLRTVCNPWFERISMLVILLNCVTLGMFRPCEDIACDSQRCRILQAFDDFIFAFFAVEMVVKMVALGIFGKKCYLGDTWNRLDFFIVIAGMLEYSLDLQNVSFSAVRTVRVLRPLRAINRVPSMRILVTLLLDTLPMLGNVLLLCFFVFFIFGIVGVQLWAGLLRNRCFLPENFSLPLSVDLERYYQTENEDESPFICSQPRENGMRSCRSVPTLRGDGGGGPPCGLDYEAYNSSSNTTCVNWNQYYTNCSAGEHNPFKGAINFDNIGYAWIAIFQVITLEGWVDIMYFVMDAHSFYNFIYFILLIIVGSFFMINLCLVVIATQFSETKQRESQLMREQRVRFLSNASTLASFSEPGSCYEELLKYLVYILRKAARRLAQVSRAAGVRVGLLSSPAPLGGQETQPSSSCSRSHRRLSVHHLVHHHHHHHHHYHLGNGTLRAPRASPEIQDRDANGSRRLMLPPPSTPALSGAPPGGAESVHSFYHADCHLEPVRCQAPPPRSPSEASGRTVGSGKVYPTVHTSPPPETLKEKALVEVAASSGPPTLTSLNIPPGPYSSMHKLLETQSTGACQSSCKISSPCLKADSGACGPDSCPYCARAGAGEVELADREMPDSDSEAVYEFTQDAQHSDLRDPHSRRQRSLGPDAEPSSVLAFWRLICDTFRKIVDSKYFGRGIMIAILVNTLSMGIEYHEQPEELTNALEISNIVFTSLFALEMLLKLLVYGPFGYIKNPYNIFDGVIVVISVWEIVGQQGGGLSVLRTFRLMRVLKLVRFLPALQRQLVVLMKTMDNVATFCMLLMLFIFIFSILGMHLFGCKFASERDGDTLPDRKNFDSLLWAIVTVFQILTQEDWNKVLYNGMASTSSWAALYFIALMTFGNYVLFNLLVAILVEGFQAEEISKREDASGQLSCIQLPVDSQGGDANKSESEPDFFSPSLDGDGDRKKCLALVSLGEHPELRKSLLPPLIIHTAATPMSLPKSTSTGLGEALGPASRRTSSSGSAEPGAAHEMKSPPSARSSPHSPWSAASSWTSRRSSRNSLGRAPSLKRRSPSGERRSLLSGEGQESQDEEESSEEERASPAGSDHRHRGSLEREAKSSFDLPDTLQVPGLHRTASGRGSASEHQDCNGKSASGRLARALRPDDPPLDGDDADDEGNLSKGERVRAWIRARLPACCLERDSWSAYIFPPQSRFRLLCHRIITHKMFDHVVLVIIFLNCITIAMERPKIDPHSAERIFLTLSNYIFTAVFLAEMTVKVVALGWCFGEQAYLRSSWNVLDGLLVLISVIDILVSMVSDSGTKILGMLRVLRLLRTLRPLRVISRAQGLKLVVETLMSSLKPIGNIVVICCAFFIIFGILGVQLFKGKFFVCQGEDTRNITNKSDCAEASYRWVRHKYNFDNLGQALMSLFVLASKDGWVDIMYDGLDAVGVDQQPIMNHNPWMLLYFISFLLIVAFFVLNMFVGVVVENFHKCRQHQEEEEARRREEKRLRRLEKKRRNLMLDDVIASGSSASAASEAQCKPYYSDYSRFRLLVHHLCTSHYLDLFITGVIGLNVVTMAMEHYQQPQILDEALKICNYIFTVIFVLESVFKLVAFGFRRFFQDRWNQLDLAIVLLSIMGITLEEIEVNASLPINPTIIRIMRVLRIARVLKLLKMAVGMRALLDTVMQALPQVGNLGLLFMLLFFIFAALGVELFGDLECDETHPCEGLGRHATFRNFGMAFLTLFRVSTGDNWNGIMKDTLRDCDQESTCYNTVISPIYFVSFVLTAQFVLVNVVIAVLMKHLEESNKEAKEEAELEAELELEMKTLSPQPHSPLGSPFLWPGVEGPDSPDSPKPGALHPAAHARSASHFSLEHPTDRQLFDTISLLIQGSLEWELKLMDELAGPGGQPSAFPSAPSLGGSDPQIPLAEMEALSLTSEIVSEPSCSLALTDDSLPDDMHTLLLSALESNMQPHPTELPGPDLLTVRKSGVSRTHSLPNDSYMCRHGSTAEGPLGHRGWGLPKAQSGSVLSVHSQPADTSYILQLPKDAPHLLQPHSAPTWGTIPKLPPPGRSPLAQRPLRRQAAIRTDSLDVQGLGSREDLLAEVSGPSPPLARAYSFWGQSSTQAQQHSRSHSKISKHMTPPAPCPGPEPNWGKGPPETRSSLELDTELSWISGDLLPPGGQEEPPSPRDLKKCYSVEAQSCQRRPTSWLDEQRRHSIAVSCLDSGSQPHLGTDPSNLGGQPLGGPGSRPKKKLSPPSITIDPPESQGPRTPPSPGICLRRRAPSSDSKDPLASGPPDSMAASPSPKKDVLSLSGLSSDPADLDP
- procedure.summary: Human Cav3.1 calcium channel patch clamp assay (SyncroPatch 384PE; single point and IC50, voltage dependent block)
- Type: cell-based
- condition.parameters: Testing Conc 1.25; HEK-293 natClytin/TASK1+Cav3.1 cell line, patch clamp
Below, each of the compounds is paired with its reported % Inhibition (Single Point Data) value.

compound	target.entity	% Inhibition (Single Point Data) / %
COc1cc(Cl)cc(NC(=O)CN2C[C@@H]3C[C@H]2CN3CC(=O)NC2(C(F)(F)F)CC2)c1	Human Cav3.1 calcium channel (Homo sapiens, UniProt O43497)	87.995
O=C(CN1C[C@@H]2C[C@H]1CN2CC(=O)NC1(C(F)(F)F)CC1)Nc1ccc(F)c(OC(F)F)c1	Human Cav3.1 calcium channel (Homo sapiens, UniProt O43497)	96.893
CC(C)(C)NC(=O)CN1C2CC1CN(CC(=O)NC13CC4CC(CC(Cl)(C4)C1)C3)C2	Human Cav3.1 calcium channel (Homo sapiens, UniProt O43497)	42.634
CC(C)(C)NC(=O)CN1C[C@@H]2C[C@H]1CN2CC(=O)Nc1cc(Cl)cc(Cl)c1	Human Cav3.1 calcium channel (Homo sapiens, UniProt O43497)	98.544
O=C(CN1CC2CC1CN2CCNC(=O)C1(C(F)(F)F)CC1)Nc1cc(F)cc(Cl)c1 (stereo not shown)	Human Cav3.1 calcium channel (Homo sapiens, UniProt O43497)	78.995
CC(C)(C)NC(=O)CN1CC2CCC1CN2Cc1nc2c(Cl)cc(F)cc2[nH]1 (stereo not shown)	Human Cav3.1 calcium channel (Homo sapiens, UniProt O43497)	93.839
Fc1cc(Cl)c2nc(CN3CCN(CCC4CCCC4)CC3)[nH]c2c1	Human Cav3.1 calcium channel (Homo sapiens, UniProt O43497)	94.005
CC(C)(C)NC(=O)CN1C[C@@H]2C[C@H]1CN2CC(=O)Nc1cccc(OC(F)F)c1	Human Cav3.1 calcium channel (Homo sapiens, UniProt O43497)	38.026
O=C(CN1C[C@@H]2C[C@H]1CN2CC(=O)NC1(C(F)(F)F)CC1)Nc1cc(F)cc(OC(F)F)c1	Human Cav3.1 calcium channel (Homo sapiens, UniProt O43497)	100.07
Cc1cccc2[nH]c(C(C)N3CC4CC(C3)N4CC(=O)NC(C)(C)C)nc12 (stereo not shown)	Human Cav3.1 calcium channel (Homo sapiens, UniProt O43497)	54.078
CC1(OC(=O)CN2C3CC2CN(Cc2nc4c(Cl)cc(F)cc4[nH]2)C3)CC1	Human Cav3.1 calcium channel (Homo sapiens, UniProt O43497)	79.539
CC(C)(NC(=O)CN1CCN(CC(=O)Nc2cc(F)cc(OC(F)F)c2)CC1)C(F)(F)F	Human Cav3.1 calcium channel (Homo sapiens, UniProt O43497)	57.147
CC(C)(C)NC(=O)CN1C[C@@H]2C[C@H]1CN2CC(=O)NC12CC3CC(CC(Cl)(C3)C1)C2	Human Cav3.1 calcium channel (Homo sapiens, UniProt O43497)	79.298
CC(C)(C)NC(=O)CN1C[C@@H]2C[C@H]1CN2CC(=O)Nc1ccn(Cc2ccc(C#N)cn2)n1	Human Cav3.1 calcium channel (Homo sapiens, UniProt O43497)	5.0515
CC(C)(C)NC(=O)CN1C2CC1CN(Cc1nc3c(C#N)cc(F)cc3[nH]1)C2	Human Cav3.1 calcium channel (Homo sapiens, UniProt O43497)	95.181
CC(C)(NC(=O)CN1C[C@@H]2C[C@H]1CN2CC(=O)Nc1ccc(F)c(Cl)c1)C(F)(F)F	Human Cav3.1 calcium channel (Homo sapiens, UniProt O43497)	92.08

Ref: patent US20250213558A1
